test system: Rattus norvegicus; test: In vivo triglyceride lowering activity when dosed as 0.01 % of the diet; assay type: functional
Binarize serum triglyceride level, percent of control at 80%; below is YES, at or above is NO.

Please state whether serum triglyceride level, percent of control is below 80% for CCCCCCCCCCCCCCCCNc1ccc(C(=O)Nc2ccc(C(=O)O)cc2)cc1 NO

Please state whether serum triglyceride level, percent of control is below 80% for CCCCCCCCCCCCCCCCNc1ccc(C(=O)OCC(O)COC(=O)c2cccnc2)cc1 (stereo unspecified) NO

Please state whether serum triglyceride level, percent of control is below 80% for CCCCCCCCCCCCCCCCNc1ccc(C(=O)OCC(C)O)cc1 (stereo unspecified) YES

Please state whether serum triglyceride level, percent of control is below 80% for CCCCCCCCCCCCCCCCNc1ccc(C(C)=O)cc1 NO

Please state whether serum triglyceride level, percent of control is below 80% for CCCCCCCCCCCCCCCCCCN(CC)c1ccc(C(=O)O)cc1 NO

Please state whether serum triglyceride level, percent of control is below 80% for CCCCCCCCCCCCCCCCNc1ccc(C#N)cc1 NO

Please state whether serum triglyceride level, percent of control is below 80% for CCCCCCCCCCCCCCCCNc1ccc(C(=O)Oc2ccccc2)cc1 NO

Please state whether serum triglyceride level, percent of control is below 80% for CCCCCCCCCCCCCCCCNc1ccc(C(=O)N2CCCCCC2)cc1 YES

Please state whether serum triglyceride level, percent of control is below 80% for CCCCCCCCCCCCCCCCNc1ccc(C(=O)O)c(OCCCCCCCCCCCCCCCC)c1 NO

Please state whether serum triglyceride level, percent of control is below 80% for CCCCCCCCCCCCCCCCNc1ccc(C(=O)N2CCCC2)cc1 YES

---

target: Sterol O-acyltransferase 1 (Rattus norvegicus) (UniProt O70536); assay: In vitro inhibition of acyl coenzyme A:cholesterol acyltransferase; set-up: concentration or dose not given beside the values; conditions: concentration not given here
Sequence (O70536 whole entry): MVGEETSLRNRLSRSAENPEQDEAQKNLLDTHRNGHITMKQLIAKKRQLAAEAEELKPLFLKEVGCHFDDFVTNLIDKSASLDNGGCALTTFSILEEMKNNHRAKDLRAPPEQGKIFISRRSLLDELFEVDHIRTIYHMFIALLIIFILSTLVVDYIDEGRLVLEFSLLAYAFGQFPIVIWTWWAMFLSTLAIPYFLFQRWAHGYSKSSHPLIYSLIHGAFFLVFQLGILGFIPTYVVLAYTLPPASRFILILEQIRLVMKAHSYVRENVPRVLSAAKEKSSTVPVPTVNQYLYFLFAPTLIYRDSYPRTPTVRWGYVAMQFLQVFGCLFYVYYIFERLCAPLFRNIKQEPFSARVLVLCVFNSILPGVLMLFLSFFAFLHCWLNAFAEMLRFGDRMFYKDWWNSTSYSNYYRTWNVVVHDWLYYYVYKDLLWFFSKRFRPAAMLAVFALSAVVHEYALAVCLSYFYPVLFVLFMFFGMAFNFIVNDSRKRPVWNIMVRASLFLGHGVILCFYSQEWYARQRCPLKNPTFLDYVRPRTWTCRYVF
RECORDED_METRIC: inhibition (%)
Expressed in %, but write only the number.

Indicate its recorded inhibition; the compound in question is CCCCCCCCCCCCCCCCNc1ccc(C2=NCCCO2)cc1 2

Indicate its recorded inhibition; the compound in question is CCCCCCCCCCCCCCCCNc1ccc(C(=O)OCC(=O)O)cc1 45

Indicate its recorded inhibition; the compound in question is Br.CCCCCCCCCCCCCCCCNc1ccc(OC(C)=O)cc1 12

Indicate its recorded inhibition; the compound in question is CCCCCCCCCCCCCCCCNc1ccc(C(=O)OCC2CO2)cc1 (stereo not given) 13

Indicate its recorded inhibition; the compound in question is CCCCCCCCCCCCCCCCNc1ccc(C(=O)Oc2ccccc2)cc1 0

Indicate its recorded inhibition; the compound in question is CCCCCCCCCCCCCCCCNc1ccc(C(=O)OCC(O)COC(=O)c2cccnc2)cc1 (stereo not given) 0

Indicate its recorded inhibition; the compound in question is CCCCCCCCCCCCCCCCNc1ccc(C2SCCCS2)cc1 9

Indicate its recorded inhibition; the compound in question is CCCCCCCCCCCCCCCCNc1ccc(C(=O)OCCO)cc1 17

Indicate its recorded inhibition; the compound in question is CCCCCCCCCCCCCCCCNc1ccc(C2OCCO2)cc1 0

Indicate its recorded inhibition; the compound in question is CCCCCCCCCCCCCCCCNc1ccc(C(=O)N2CCCC2)cc1 59

Indicate its recorded inhibition; the compound in question is CCCCCCCCCCCCCCCCNc1ccc(C(=O)SCCO)cc1 1

Indicate its recorded inhibition; the compound in question is CCCCCCCCCCCCCCCCNc1ccc(C(=O)CS(C)(=O)=O)cc1 0

Indicate its recorded inhibition; the compound in question is CCCCCCCCCCCCCCCCNc1ccc(C(=O)O)c(C)c1 38

Indicate its recorded inhibition; the compound in question is CCCCCCCCCCCCCCCCNc1ccc(O)cc1 0

---

tested on: Rattus norvegicus; test: In vivo sterol lowering activity at dose of 0.10 % of the diet; format: functional
RECORDED_METRIC: serum sterol level, percent of control (%)
Expressed in %, but write only the number.

Answer briefly: serum sterol level, percent of control recorded on Rattus norvegicus for CCCCCCCCCCCCCCCCNc1ccc(SCC(=O)O)cc1 93

Answer briefly: serum sterol level, percent of control recorded on Rattus norvegicus for CCCCCCCCCCCCCCCCNc1ccc(CO)cc1 95

Answer briefly: serum sterol level, percent of control recorded on Rattus norvegicus for CCCCCCCCCCCCCCCCNc1ccc(C(=O)O)c(OCCCCCCCCCCCCCCCC)c1 95

---

Field: serum triglyceride level, percent of control. Provide a value for each of the compounds that follow.
tested on: Rattus norvegicus; assay: In vivo triglyceride lowering activity when dosed as 0.01 % of the diet; type: functional
Expressed in %, but write only the number.

Indicate its recorded serum triglyceride level, percent of control; the compound in question is CCCCCCCCCCCCCCCCCN(CC)c1ccc(C(=O)O)cc1 126

Indicate its recorded serum triglyceride level, percent of control; the compound in question is CCCCCCCCCCCCCCCCNc1ccc(C(=O)NS(C)(=O)=O)cc1 77

Indicate its recorded serum triglyceride level, percent of control; the compound in question is CCCCCCCCCCCCCCCCNc1ccc(C(=O)COC)cc1 77

Indicate its recorded serum triglyceride level, percent of control; the compound in question is CCCCCCCCCCCCCCCCNc1ccc(SCC(=O)O)cc1 72

Indicate its recorded serum triglyceride level, percent of control; the compound in question is CCCCCCCCCCCCCCCCN(CC(=O)OCC)c1ccc(C(=O)OC)cc1 113

Indicate its recorded serum triglyceride level, percent of control; the compound in question is CCCCCCCCCCCCCCCCNc1ccc(C(SCC)SCC)cc1 86

Indicate its recorded serum triglyceride level, percent of control; the compound in question is CCCCCCCCCCCCCCCCNc1ccc(C(=O)O)cc1F 91

Indicate its recorded serum triglyceride level, percent of control; the compound in question is CCCCCCCCCCCCCCCCNc1cc(C(=O)[O-])cc(C(=O)[O-])c1.[Na+].[Na+] 96

Indicate its recorded serum triglyceride level, percent of control; the compound in question is CCCCCCCCCCCCCCCCNc1ccc(C(=O)NS(=O)(=O)c2ccccc2)cc1 86

Indicate its recorded serum triglyceride level, percent of control; the compound in question is CCCCCCCCCCCCCCN(C(C)=O)c1ccc(C(=O)O)cc1 98

Indicate its recorded serum triglyceride level, percent of control; the compound in question is CCCCCCCCCCCCCCCCNCc1ccc(C(=O)O)cc1 86

Indicate its recorded serum triglyceride level, percent of control; the compound in question is CCCCCCCCCCCCCCCCNc1ccc(C(=O)CC#N)cc1 132

Indicate its recorded serum triglyceride level, percent of control; the compound in question is CCCCCCCCCCCCCCCCNc1ccc(C(=O)C(C)(C)C(=O)OCC)cc1 101

Indicate its recorded serum triglyceride level, percent of control; the compound in question is Br.CCCCCCCCCCCCCCCCNc1ccc(COC(C)=O)cc1 79

Indicate its recorded serum triglyceride level, percent of control; the compound in question is CCCCCCCCCCCCCCCCNc1ccc(C(=O)Oc2ccc(C(=O)O)cc2)cc1 98

Indicate its recorded serum triglyceride level, percent of control; the compound in question is CCCCCCCCCCCCCCCCNc1ccc(C(=O)SCC(O)CO)cc1 (stereo not drawn) 106

Indicate its recorded serum triglyceride level, percent of control; the compound in question is CCCCCCCCCCCCCCCCN(CCCCCCCCCCCCCCCC)c1ccc(C(=O)O)c2ccccc12 100

Indicate its recorded serum triglyceride level, percent of control; the compound in question is CCCCCCCCCCCCCCCCNc1ccc(C(C)(C)C(=O)O)cc1 109

Indicate its recorded serum triglyceride level, percent of control; the compound in question is CCCCCCCCCCCCCCCCNc1ccc(C(=O)OCC)cc1C 81

Indicate its recorded serum triglyceride level, percent of control; the compound in question is CCCCCCCCCCCCCCCCNc1ccc(C(=O)OCC)c(C(=O)OCC)c1 86

---

test system: Rattus norvegicus; experiment: In vivo triglyceride lowering activity when dosed as 0.01 % of the diet; type: functional
RECORDED_METRIC: serum triglyceride level, percent of control (%)
Expressed in %, but write only the number.

Indicate its recorded serum triglyceride level, percent of control; the compound in question is CCCCCCCCCCCCCCCCNc1ccc(C(=O)OCC(CO)OC(C)=O)cc1 (stereo unspecified) 90

Indicate its recorded serum triglyceride level, percent of control; the compound in question is CCCCCCCCCCCCCCCCN(C(C)=O)c1ccc(C(=O)O)cc1 109

Indicate its recorded serum triglyceride level, percent of control; the compound in question is CCCCCCCCCCCCCCCCNc1ccc(C(=O)OCC(=O)OC)cc1 79

Indicate its recorded serum triglyceride level, percent of control; the compound in question is CCCCCCCCCCCCCCCCNc1ccc(C(=O)Oc2ccc(Cl)cc2)cc1 91

Indicate its recorded serum triglyceride level, percent of control; the compound in question is CCCCCCCCCCCCCCCCCCN(C)c1ccc(C(=O)O)cc1 86

Indicate its recorded serum triglyceride level, percent of control; the compound in question is CCCCCCCCCCCCCCCCNc1ccc(C(=O)CC(=O)O)cc1 80

Indicate its recorded serum triglyceride level, percent of control; the compound in question is CCCCCCCCCCCCCCCCNc1ccc(C(=O)O)c(C)c1 112

Indicate its recorded serum triglyceride level, percent of control; the compound in question is CCCCCCCCCCCCCCCCNC1CCC(C(=O)OC)CC1 (stereo unspecified) 78

Indicate its recorded serum triglyceride level, percent of control; the compound in question is CCCCCCCCCCCCCCCCNc1ccc(C(=O)[O-])c(C(=O)[O-])c1.[Na+].[Na+] 110

Indicate its recorded serum triglyceride level, percent of control; the compound in question is CCCCCCCCCCCCCCN(CC)c1ccc(C(=O)O)cc1 90
